I'd be grateful if you could share measured Neutralization IC50, H1-NJ76 for these entries.
# study target: HA of A/New Jersey/8/76 (H1N1) virus (influenza A virus)
# method summary: cell-based or functional assay
// note: answer is a bare numeric in µg/mL

Short answer for Antibody 15 (antibody, V domains shown) VH: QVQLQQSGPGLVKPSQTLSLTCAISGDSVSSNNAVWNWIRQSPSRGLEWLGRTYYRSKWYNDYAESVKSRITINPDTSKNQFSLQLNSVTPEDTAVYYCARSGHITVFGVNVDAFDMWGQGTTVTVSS VL: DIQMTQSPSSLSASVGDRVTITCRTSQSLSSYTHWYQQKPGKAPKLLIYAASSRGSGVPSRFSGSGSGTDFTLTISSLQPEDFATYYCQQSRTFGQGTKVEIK : Neutralization IC50, H1-NJ76 was 0.25

Short answer for Antibody 12 (antibody, V domains shown) VH: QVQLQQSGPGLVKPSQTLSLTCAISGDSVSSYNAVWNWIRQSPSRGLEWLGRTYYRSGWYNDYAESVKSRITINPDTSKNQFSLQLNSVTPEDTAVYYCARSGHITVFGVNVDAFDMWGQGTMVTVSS VL: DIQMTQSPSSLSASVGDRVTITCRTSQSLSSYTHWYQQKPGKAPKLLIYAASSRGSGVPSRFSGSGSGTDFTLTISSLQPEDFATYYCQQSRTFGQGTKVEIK : Neutralization IC50, H1-NJ76 was 0.12

Short answer for Antibody 11 (antibody, V domains shown) VH: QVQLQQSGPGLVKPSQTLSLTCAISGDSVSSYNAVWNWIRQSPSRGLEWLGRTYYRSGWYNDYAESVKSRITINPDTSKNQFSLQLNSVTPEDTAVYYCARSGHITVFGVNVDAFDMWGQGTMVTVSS VL: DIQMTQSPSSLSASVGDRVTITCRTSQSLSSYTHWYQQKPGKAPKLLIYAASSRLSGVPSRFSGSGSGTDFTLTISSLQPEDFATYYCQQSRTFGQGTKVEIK : Neutralization IC50, H1-NJ76 was 0.13

Short answer for Antibody 13 (antibody, V domains shown) VH: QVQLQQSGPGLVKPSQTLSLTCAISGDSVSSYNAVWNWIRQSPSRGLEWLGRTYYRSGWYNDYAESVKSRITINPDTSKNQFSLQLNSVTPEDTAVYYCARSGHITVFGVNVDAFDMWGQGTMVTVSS VL: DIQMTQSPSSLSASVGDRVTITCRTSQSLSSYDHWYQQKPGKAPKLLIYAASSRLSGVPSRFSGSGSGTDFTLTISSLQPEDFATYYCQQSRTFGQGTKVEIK : Neutralization IC50, H1-NJ76 was 0.12
